# System: BMPR1A (Homo sapiens)
# Construct: purchased G&P Biosciences
# Sequence (P36894 24-152 limits assumed): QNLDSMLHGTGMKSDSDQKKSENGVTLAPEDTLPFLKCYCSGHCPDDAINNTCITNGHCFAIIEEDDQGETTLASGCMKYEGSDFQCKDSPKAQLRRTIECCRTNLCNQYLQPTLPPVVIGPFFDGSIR
# Protocol Summary: Biopanning of Ph.D.-12 phage library on immobilized BMPR1A-Fc
# Type: binding
# Setup Conditions: peptide displayed on p3 of M13 phage; 3 rounds of panning
Property Label: Binding to BMPR1A found by biopanning (frequency among sequenced plaques)

[
  {
    "Sequence Record": "NAKYPTMRPGPK (Completely synthesized in the lab - Ph.D.-12 Phage Display Peptide Library Kit (New England Biolabs))",
    "System": "BMPR1A (Homo sapiens)",
    "Value Reported": "discovered to bind"
  },
  {
    "Sequence Record": "NAKYPTMRPGPL (Completely synthesized in the lab - Ph.D.-12 Phage Display Peptide Library Kit (New England Biolabs))",
    "System": "BMPR1A (Homo sapiens)",
    "Value Reported": "discovered to bind"
  },
  {
    "Sequence Record": "RDYHPRDHTATW (Completely synthesized in the lab - Ph.D.-12 Phage Display Peptide Library Kit (New England Biolabs))",
    "System": "BMPR1A (Homo sapiens)",
    "Value Reported": "discovered to bind"
  }
]
